Recorded values, source patent EP4342530A1.

test.description: in vitro
Format: in vitro ADME
cond: mouse, plasma, pH 7.4
Procedure: Plasma protein binding and brain homogenate binding for study compounds in mouse, dog, and rat by rapid equilibrium dialysis In practice, unbound fractions in plasma and brain tissue were assessed using rapid equilibrium dialysis in vitro. […]
measured.quantity: fraction unbound at 4 h, 5 µM

> print(dat)
                                   compound              measured.quantity  recorded.number
1  Cc1cccc(NC(=O)c2ccc(C(F)(F)F)cc2C(=O)O)n1 [Comparative Example 1]  fraction unbound at 4 h, 5 µM            0.068

----------
test.description: in vivo
cond: male, CD1 (ICR), mouse, 3 mg/kg
measured.quantity: Kp at 0.5 h

> print(dat)
                            smiles.notation  measured.quantity  result
1  Cc1cccc(NC(=O)c2ccc(C(F)(F)F)cc2C(=O)O)n1        Kp at 0.5 h  < 0.01

----------
tested.system: Sortilin (Homo sapiens)
Construct: purchased Bio-Techne Ltd 3154-ST-050
test.description: Creoptix (GCI) binding kinetics, human Sortilin
cond: Species Human; Form of Compound Free acid; screened at 1 µM, 25 degrees Celsius
Label scheme, based on Kd: class 1: < 100 nM; class 2: ≥ 100 nM and < 200 nM; class 3: ≥ 200 nM

> print(dat)
                             smiles.notation            tested.system    label
 1  CC(C)(C)CC[C@H](NCc1ccc2c(c1)OCCC2)C(=O)O  Sortilin (Homo sapiens)  class 1
 2  CN1CCOc2cc(CN[C@@H](CCC(C)(C)C)C(=O)O)ccc21  Sortilin (Homo sapiens)  class 3
 3  CC(C)(C)CC[C@H](N[C@@H](c1ccc2c(c1)CCC2)C(F)(F)F)C(=O)O  Sortilin (Homo sapiens)  class 3
 4  C[C@H](N[C@@H](CCC(C)(C)C)C(=O)O)c1ccc2c(c1)CCCO2  Sortilin (Homo sapiens)  class 2
 5  CN1C(=O)CCc2ccc(CN[C@@H](CCC(C)(C)C)C(=O)O)cc21  Sortilin (Homo sapiens)  class 3
 6  C[C@@H](N[C@@H](CCC(C)(C)C)C(=O)O)c1ccc(Oc2ccccc2)nc1  Sortilin (Homo sapiens)  class 1
 7  CC(C)(C)CC[C@H](N[C@H](c1ccc2c(c1)CCCC2)C(F)F)C(=O)O  Sortilin (Homo sapiens)  class 2
 8  C[C@@H](N[C@@H](CCC(C)(C)C)C(=O)O)c1ccc2c(c1)NCCC2  Sortilin (Homo sapiens)  class 1
 9  C[C@H](N[C@@H](CCC(C)(C)C)C(=O)O)c1ccc(Oc2ccccc2)nc1  Sortilin (Homo sapiens)  class 2
10  C[C@H](N[C@@H](CCC(C)(C)C)C(=O)O)c1ccc2c(c1)OCCO2  Sortilin (Homo sapiens)  class 2
11  CC(C)(C)CC[C@H](NCc1cnc2c(c1)CCC2)C(=O)O  Sortilin (Homo sapiens)  class 2
12  C[C@@H](N[C@@H](CCC(C)(C)C)C(=O)O)c1ccc2c(c1)OCO2  Sortilin (Homo sapiens)  class 2
13  CC(C)(C)CC[C@H](NCc1ccc2c(c1)CCC2)C(=O)O  Sortilin (Homo sapiens)  class 2
14  C[C@@H](N[C@@H](CCC(C)(C)C)C(=O)O)c1ccc2c(c1)N(C)CCC2  Sortilin (Homo sapiens)  class 1
15  C[C@@H](N[C@@H](CCC(C)(C)C)C(=O)O)c1ccc2c(c1)OCCO2  Sortilin (Homo sapiens)  class 2
16  CC(C)(C)CC[C@H](NCc1ccnc(Oc2ccccc2)c1)C(=O)O  Sortilin (Homo sapiens)  class 1
17  CC(C)(C)CC[C@H](NCc1ccc2c(c1)CCCN2)C(=O)O  Sortilin (Homo sapiens)  class 3
18  CC(C)(C)CC[C@H](NCc1ccc2c(c1)CNCC2)C(=O)O  Sortilin (Homo sapiens)  class 3
19  C[C@H](N[C@@H](CCC(C)(C)C)C(=O)O)c1ccc2c(c1)OCO2  Sortilin (Homo sapiens)  class 2
20  CC(C)(C)CC[C@H](NCc1cnc2c(c1)COCC2)C(=O)O  Sortilin (Homo sapiens)  class 2
21  CC(C)(C)CC[C@H](N[C@@H](c1ccc2c(c1)CCCC2)C(F)(F)F)C(=O)O  Sortilin (Homo sapiens)  class 1
22  CC(C)(C)CC[C@H](NCc1cnc2c(c1)CCCC2)C(=O)O  Sortilin (Homo sapiens)  class 3
23  Cn1c(=O)oc2cc(CN[C@@H](CCC(C)(C)C)C(=O)O)ccc21  Sortilin (Homo sapiens)  class 3
24  CC(C)(C)CC[C@H](NCc1cccc(Oc2ccccc2)c1)C(=O)O  Sortilin (Homo sapiens)  class 3
25  CN1C(=O)COc2ccc(CN[C@@H](CCC(C)(C)C)C(=O)O)cc21  Sortilin (Homo sapiens)  class 2
26  C[C@@H](N[C@@H](CCC(C)(C)C)C(=O)O)c1ccc2c(c1)CCCO2  Sortilin (Homo sapiens)  class 3
27  C[C@@H](N[C@@H](CCC(C)(C)C)C(=O)O)c1ccc2c(c1)CCCC2  Sortilin (Homo sapiens)  class 1
28  CC(C)(C)CC[C@H](NCc1ccc2c(c1)OCO2)C(=O)O  Sortilin (Homo sapiens)  class 2
29  CC(C)(C)CC[C@H](NCc1ccc2c(c1)COCC2)C(=O)O  Sortilin (Homo sapiens)  class 3
30  CC(C)(C)CC[C@H](N[C@@H](c1ccc2c(c1)CCCC2)C(F)F)C(=O)O  Sortilin (Homo sapiens)  class 1
31  CC(C)(C)CC[C@H](N[C@H](c1ccc2c(c1)OCCC2)C(F)F)C(=O)O  Sortilin (Homo sapiens)  class 3
32  CC(C)(C)CC[C@H](N[C@@H](c1cnc2c(c1)CCCC2)C(F)(F)F)C(=O)O  Sortilin (Homo sapiens)  class 1
33  CC(C)(C)CC[C@H](N[C@@H](c1ccc2c(c1)OCCC2)C(F)F)C(=O)O  Sortilin (Homo sapiens)  class 1
34  CC(C)(C)CC[C@H](NCc1ccc2c(c1)CCOC2)C(=O)O  Sortilin (Homo sapiens)  class 2
35   CC(C)(C)CC[C@H](NCc1cccc2c1CCCO2)C(=O)O  Sortilin (Homo sapiens)  class 3

----------
pIC50: −log10 of the molar value.
Entries with their measured pIC50, system h-Sortilin (Homo sapiens, UniProt Q99523):
measured.quantity: pIC50

> print(dat)
                            smiles.notation  measured.quantity  recorded.number
1  C[C@@H](N[C@@H](CCC(C)(C)C)C(=O)O)c1ccc2c(c1)CCCO2              pIC50             6.59
2  C[C@@H](N[C@@H](CCC(C)(C)C)C(=O)O)c1ccc2c(c1)NCCC2              pIC50             6.51
3  C[C@H](N[C@@H](CCC(C)(C)C)C(=O)O)c1ccc(Oc2ccccc2)nc1              pIC50             6.13
4  CN1CCc2cc(CN[C@@H](CCC(C)(C)C)C(=O)O)ccc2C1=O              pIC50             6.20
5  CC(C)(C)CC[C@H](NCc1cnc2c(c1)CCC2)C(=O)O              pIC50             6.30
6  C[C@@H](N[C@@H](CCC(C)(C)C)C(=O)O)c1ccc2c(c1)OCCC2              pIC50             6.68
7  CC(C)(C)CC[C@H](NCc1ccc2c(c1)NCCC2)C(=O)O              pIC50             6.72
8  CN1CCc2ccc(CN[C@@H](CCC(C)(C)C)C(=O)O)cc2C1              pIC50             6.33
9  C[C@H](N[C@@H](CCC(C)(C)C)C(=O)O)c1ccc2c(c1)CCC2              pIC50             6.55

----------
test.description: Kpuu determination in the dog (plasma and CSF time course after oral capsule)
Format: in vivo, male beagle dog
cond: male, beagle, plasma, 20 mg/kg oral capsule, 2 h
measured.quantity: concentration at 2 h (ng/mL)

> print(dat)
                            smiles.notation     measured.quantity  recorded.number
1  CC(C)(C)CC[C@H](NCc1ccc2c(c1)COCC2)C(=O)O  concentration at 2 h              370

----------
tested.system: h-Sortilin (Homo sapiens, UniProt Q99523)
Sequence (Q99523 78-831): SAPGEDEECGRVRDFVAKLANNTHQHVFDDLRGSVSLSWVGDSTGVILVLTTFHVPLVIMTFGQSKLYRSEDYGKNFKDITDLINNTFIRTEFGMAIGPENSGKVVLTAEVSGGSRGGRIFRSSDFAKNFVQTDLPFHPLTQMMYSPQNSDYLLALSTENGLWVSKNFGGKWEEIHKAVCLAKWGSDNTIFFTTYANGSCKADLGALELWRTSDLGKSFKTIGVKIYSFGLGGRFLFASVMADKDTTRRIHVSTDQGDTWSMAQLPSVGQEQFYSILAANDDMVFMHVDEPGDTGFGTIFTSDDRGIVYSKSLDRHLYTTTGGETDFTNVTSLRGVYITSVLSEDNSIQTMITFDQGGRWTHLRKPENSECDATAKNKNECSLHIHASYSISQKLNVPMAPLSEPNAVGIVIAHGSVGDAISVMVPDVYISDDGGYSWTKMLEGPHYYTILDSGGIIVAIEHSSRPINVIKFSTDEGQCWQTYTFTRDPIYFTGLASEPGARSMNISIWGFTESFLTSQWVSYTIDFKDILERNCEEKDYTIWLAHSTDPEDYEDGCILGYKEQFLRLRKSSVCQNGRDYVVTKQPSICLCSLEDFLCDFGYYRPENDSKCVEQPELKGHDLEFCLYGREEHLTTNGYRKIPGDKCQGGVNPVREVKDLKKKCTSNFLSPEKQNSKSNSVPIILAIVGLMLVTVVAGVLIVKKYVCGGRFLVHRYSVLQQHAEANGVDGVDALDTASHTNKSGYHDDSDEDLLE
# IC50 annotations
measured.quantity: IC50

> print(dat)
                            smiles.notation                             tested.system   result
1  CC(C)(C)CC[C@H](NCc1cnc2c(c1)COCC2)C(=O)O  h-Sortilin (Homo sapiens, UniProt Q99523)   350 nM
2  CC(C)(C)CC[C@H](N[C@H](c1ccc2c(c1)CCCC2)C(F)F)C(=O)O  h-Sortilin (Homo sapiens, UniProt Q99523)   590 nM
3    CC(C)(C)CC[C@H](NCc1cccc2c1CCC2)C(=O)O  h-Sortilin (Homo sapiens, UniProt Q99523)   850 nM
4  COc1cccc([C@@H](CCO)N[C@@H](CCC(C)(C)C)C(=O)O)c1  h-Sortilin (Homo sapiens, UniProt Q99523)   590 nM
5  CN1C(=O)COc2cc(CN[C@@H](CCC(C)(C)C)C(=O)O)ccc21  h-Sortilin (Homo sapiens, UniProt Q99523)   950 nM
6  COc1cccc([C@H](CCO)N[C@@H](CCC(C)(C)C)C(=O)O)c1  h-Sortilin (Homo sapiens, UniProt Q99523)   760 nM
7  CC(C)(C)CC[C@H](NCc1ccc2c(c1)OCO2)C(=O)O  h-Sortilin (Homo sapiens, UniProt Q99523)   860 nM
8  CC(C)(C)CC[C@H](N[C@H](CCO)c1ccccc1)C(=O)O  h-Sortilin (Homo sapiens, UniProt Q99523)  6450 nM
9  CC(C)(C)CC[C@H](NCc1ccc(Oc2ccccc2)cc1)C(=O)O  h-Sortilin (Homo sapiens, UniProt Q99523)   520 nM
